- tested.system: T1, HER2 (human epidermal growth factor receptor 2) on cells (human, UniProt P04626 23-1255)
- T1 construct: whole, on cells; also called ERBB2; HER2 receptor
- assay: flow cytometry (Cy5), BT-474 cells, 1 h, conjugate at 25 mM (so in the source)
recorded.endpoint: MFI
Reply briefly: the number, and no unit.

Below are worked cases with known answers.
{"binder": "[(ε-NHCO-PEG1100)16(α-DOTA)7(α-NHCy5)1(α-NH2)8][Lys]16[Lys]8[Lys]4[Lys]2[Lys]-(PN)NCO-PEG24-CONH-PEG4-(PhTzMe)/TCO-NHCO-PEG24-(MAL)Me/Cys-Nanobody SRS-17 (VHH, the additional cysteine (in …) coupled to the methylmaleimide of linker SRS-12 (intermediate SRS-14), whose TCO is joined to the tetrazine of dendrimer HH-2 (1 Cy5, 7 DOTA, 16 PEG1100)) VHH: EVQLVESGGSLVQPGGSLRLSCAASGFTFDDYAMSWVRQVPGKGLEWVSSINWSGTHTDYADSVKGRFTISRNNANNTLYLQMNSLKSEDTAVYYCAKNWRDAGTTWFEKSGSAGQGTQVTVSS", "MFI": 2550}
{"binder": "BHALys[Lys]2[Lys]4[Lys]8[Lys]16[((α-NH-COPEG24NH-COPEG4(PhTzMe)/TCO-PEG3-NHCO-PEG24-(MAL)Me/Cys-Nanobody)1(α-NHCy5)1(α-NHDOTA))10(α-NH2)4)(ε-NH-COPEG1000)16] … (VHH, the additional cysteine (in …) coupled to the methylmaleimide of SRS-21a (linker SRS-12 on G4 dendrimer SRS-1: 1 Cy5, 10 DOTA, 16 PEG1000)) VHH: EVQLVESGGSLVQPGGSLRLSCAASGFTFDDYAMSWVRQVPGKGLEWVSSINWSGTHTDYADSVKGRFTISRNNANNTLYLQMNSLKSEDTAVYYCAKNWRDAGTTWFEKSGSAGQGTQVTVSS", "MFI": 4760}
{"binder": "[(ε-NHCO-PEG1100)16(α-DOTA)7(α-NHCy5)1(α-NH2)8][Lys]16[Lys]8[Lys]4[Lys]2[Lys]-(PN)NCO-PEG24-CONH-PEG4-(PhTzMe)/TCO-PEG3-NHCO-PEG24-Glu-DBCO/N3-Nanobody SRS-22 (VHH, # (unnatural amino acid, p-azido-phenylalanine, after ...QVTVSS) clicked to the DBCO of SRS-22a (linker Compound 51 on dendrimer HH-2: 1 Cy5, 7 DOTA, 16 PEG1100)) VHH: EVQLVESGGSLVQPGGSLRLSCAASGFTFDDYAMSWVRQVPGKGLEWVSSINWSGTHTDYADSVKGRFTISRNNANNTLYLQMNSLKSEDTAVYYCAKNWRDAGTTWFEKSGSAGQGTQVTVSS", "MFI": 6490}

Q) May I ask what MFI has been recorded for [[(ε-NHCO-PEG1100)8(α-NHDOTA)4.75(α-NHCy5)0.5(α-NH2)2.75][Lys]8[Lys]4[Lys]2[Lys]-CONH-CH2-CH2-S-]2MAL-PEG3-NHCO-PEG24-CONH-PEG4-(PhTzMe)/TCO-NHCO-PEG24-(MAL)Me/ … (VHH, the additional cysteine (in …) coupled to the methylmaleimide of linker SRS-12 (intermediate SRS-14), whose TCO is joined to the tetrazine of dendrimer SRS-4-Mal (maleimide core, Cy5, DOTA, PEG1100)) VHH: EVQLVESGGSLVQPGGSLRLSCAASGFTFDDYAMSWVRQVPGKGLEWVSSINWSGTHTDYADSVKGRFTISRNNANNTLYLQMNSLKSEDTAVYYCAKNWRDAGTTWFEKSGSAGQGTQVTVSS ?
A) 2150
